TARGET_OR_TEST_SYSTEM: Vascular endothelial growth factor receptor 1 (Homo sapiens) (UniProt P17948);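 further: values are mean percent inhibition of FLT1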
Sequence (P17948 whole entry): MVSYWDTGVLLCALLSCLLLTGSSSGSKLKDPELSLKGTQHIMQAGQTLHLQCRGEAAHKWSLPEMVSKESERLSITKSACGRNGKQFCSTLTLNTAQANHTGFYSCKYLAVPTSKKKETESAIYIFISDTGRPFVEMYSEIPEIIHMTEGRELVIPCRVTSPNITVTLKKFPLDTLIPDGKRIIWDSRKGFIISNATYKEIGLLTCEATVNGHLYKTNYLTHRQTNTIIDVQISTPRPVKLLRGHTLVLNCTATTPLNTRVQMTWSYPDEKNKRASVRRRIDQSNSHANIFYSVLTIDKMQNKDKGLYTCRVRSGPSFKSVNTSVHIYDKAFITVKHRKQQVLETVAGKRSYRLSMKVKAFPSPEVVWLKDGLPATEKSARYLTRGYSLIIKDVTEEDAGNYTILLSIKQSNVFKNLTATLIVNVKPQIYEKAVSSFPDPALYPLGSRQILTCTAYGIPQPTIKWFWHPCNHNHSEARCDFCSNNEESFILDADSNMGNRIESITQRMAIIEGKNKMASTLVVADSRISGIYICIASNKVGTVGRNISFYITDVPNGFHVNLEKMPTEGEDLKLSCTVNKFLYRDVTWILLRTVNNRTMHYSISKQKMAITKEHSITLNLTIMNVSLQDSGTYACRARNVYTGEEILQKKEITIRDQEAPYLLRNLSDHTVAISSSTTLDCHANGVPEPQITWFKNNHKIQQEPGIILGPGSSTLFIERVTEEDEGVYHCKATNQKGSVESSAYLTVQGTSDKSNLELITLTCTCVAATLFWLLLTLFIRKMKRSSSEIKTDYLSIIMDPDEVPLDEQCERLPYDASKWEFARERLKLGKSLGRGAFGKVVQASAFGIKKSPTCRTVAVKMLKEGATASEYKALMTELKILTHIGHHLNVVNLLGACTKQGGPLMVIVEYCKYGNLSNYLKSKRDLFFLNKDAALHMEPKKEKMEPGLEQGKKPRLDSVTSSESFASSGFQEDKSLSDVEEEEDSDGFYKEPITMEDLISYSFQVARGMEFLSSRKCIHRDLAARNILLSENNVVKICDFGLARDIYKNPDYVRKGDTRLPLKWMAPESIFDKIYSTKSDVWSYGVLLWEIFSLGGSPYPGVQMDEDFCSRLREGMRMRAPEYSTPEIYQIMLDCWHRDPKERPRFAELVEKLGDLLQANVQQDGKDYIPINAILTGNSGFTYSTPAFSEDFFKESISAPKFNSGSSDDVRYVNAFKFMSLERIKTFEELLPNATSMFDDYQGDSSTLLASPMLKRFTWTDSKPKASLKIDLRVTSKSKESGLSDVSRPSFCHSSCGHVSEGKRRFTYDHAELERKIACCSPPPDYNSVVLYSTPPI
CONDITION: at 0.1 µM
Listed below: inhibition values for each entry.
PROPERTY: inhibition (%)

- STRUCTURE: "Clc1ccc(CNc2nccc(-c3cnn4ncccc34)n2)cc1"
  TARGET_OR_TEST_SYSTEM: "Vascular endothelial growth factor receptor 1 (Homo sapiens) (UniProt P17948)"
  PROPERTY: "inhibition"
  NUMERIC_VALUE: -1.24
- STRUCTURE: "c1ccc(-c2n[nH]cc2-c2ccnc(-c3ccc(OCCN4CCOCC4)cc3)c2)nc1"
  TARGET_OR_TEST_SYSTEM: "Vascular endothelial growth factor receptor 1 (Homo sapiens) (UniProt P17948)"
  PROPERTY: "inhibition"
  NUMERIC_VALUE: 3.88
- STRUCTURE: "CN(C)c1ccc2c(c1)/C(=C/Nc1ccc(S(N)(=O)=O)cc1)C(=O)N2"
  TARGET_OR_TEST_SYSTEM: "Vascular endothelial growth factor receptor 1 (Homo sapiens) (UniProt P17948)"
  PROPERTY: "inhibition"
  NUMERIC_VALUE: 1.02
- STRUCTURE: "O=C(Nc1n[nH]c2cc(-c3cc(F)ccc3F)ccc12)C1CC1"
  TARGET_OR_TEST_SYSTEM: "Vascular endothelial growth factor receptor 1 (Homo sapiens) (UniProt P17948)"
  PROPERTY: "inhibition"
  NUMERIC_VALUE: 0.6
- STRUCTURE: "c1ccc(Oc2ccc(Nc3ncc(-c4ccccc4)o3)cc2)cc1"
  TARGET_OR_TEST_SYSTEM: "Vascular endothelial growth factor receptor 1 (Homo sapiens) (UniProt P17948)"
  PROPERTY: "inhibition"
  NUMERIC_VALUE: 1.53
- STRUCTURE: "C/C(Nc1ccc(S(N)(=O)=O)cc1)=C1/C(=O)Nc2ccccc21"
  TARGET_OR_TEST_SYSTEM: "Vascular endothelial growth factor receptor 1 (Homo sapiens) (UniProt P17948)"
  PROPERTY: "inhibition"
  NUMERIC_VALUE: 10.8
- STRUCTURE: "Cc1nnc(-c2ccc(C)c(-c3ccc(C(=O)NCc4ccc(Cl)cc4)cc3)c2)o1"
  TARGET_OR_TEST_SYSTEM: "Vascular endothelial growth factor receptor 1 (Homo sapiens) (UniProt P17948)"
  PROPERTY: "inhibition"
  NUMERIC_VALUE: 2.48
- STRUCTURE: "CN(c1ccc(NC(=O)Nc2c(Cl)cccc2Cl)cc1)c1ccnc(Nc2cccc(CS(C)(=O)=O)c2)n1"
  TARGET_OR_TEST_SYSTEM: "Vascular endothelial growth factor receptor 1 (Homo sapiens) (UniProt P17948)"
  PROPERTY: "inhibition"
  NUMERIC_VALUE: 38.5
- STRUCTURE: "FC(F)(F)c1cccc(Nc2nccc(-c3cnn4nc(-c5ccccc5)ccc34)n2)c1"
  TARGET_OR_TEST_SYSTEM: "Vascular endothelial growth factor receptor 1 (Homo sapiens) (UniProt P17948)"
  PROPERTY: "inhibition"
  NUMERIC_VALUE: 2.04
